# System under test: TRPV1 human (Homo sapiens, UniProt Q8NER1)
# Construct: expressed in transfected cells; host or cells: CHO K1 cells
# Sequence (Q8NER1 whole entry): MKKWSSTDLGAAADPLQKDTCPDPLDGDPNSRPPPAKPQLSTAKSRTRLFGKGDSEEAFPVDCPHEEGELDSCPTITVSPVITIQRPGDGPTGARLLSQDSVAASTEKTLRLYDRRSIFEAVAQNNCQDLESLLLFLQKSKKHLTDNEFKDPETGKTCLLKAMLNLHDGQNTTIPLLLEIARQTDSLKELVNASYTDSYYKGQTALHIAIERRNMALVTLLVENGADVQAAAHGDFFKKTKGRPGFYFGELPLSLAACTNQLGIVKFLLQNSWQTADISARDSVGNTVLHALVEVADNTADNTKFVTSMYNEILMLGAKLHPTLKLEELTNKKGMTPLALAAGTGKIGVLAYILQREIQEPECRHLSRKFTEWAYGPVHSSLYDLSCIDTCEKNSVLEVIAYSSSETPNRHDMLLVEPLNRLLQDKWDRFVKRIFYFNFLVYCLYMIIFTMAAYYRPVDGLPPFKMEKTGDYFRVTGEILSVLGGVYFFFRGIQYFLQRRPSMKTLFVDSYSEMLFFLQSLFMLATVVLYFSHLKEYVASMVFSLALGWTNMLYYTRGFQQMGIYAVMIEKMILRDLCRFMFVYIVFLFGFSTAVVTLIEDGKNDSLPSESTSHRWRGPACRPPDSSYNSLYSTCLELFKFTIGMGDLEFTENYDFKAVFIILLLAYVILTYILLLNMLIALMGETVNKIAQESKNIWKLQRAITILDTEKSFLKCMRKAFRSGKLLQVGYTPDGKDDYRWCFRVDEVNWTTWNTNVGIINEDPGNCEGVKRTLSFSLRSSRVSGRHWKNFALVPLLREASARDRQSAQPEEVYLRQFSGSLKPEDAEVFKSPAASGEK
# Assay method text: Functional testing on the vanilloid receptor 1 (VR1/TRPV1): FLIPR Ca2+ influx assay, inhibition of capsaicin (CAP) stimulation
# Type: cell-based
# Study conditions: ne = did not show any effect in this assay; pAG = partial agonist
# Experimental: […] In the process, the Ca^2+ influx is quantified in the FLIPR assay with the aid of a Ca^2+-sensitive dye (type Fluo-4, Molecular Probes Europe BV, Leiden, the Netherlands) in a fluorescent imaging plate reader (FLIPR, Molecular Devices, Sunnyvale, USA), as described hereinafter. […] The FLIPR protocol consists of 2 substance additions. […] After 5 min incubation, 100 nM of capsaicin are applied and the Ca^2+ influx is also determined. […]
Reported endpoint: TRPV1 human (f) CAP, result in words

Q. For the molecule CC1CCN(c2nc(C(F)(F)F)ccc2CNC(=O)Nc2nc3c([N+](=O)[O-])cccc3s2)CC1 , what TRPV1 human (f) CAP, result in words is on record?
A. pAG

Q. // TRPV1 human (f) CAP, result in words lookup, key: CC1CCN(c2nc(C(F)(F)F)ccc2CNC(=O)Nc2nc3c(Cl)cccc3s2)CC1
A. ne

Q. I have this molecule here, CCNc1nc(C(F)(F)F)ccc1CNC(=O)C(C)c1cn(C)c2ccc(OC)cc12 (stereo not shown) , and I need its recorded TRPV1 human (f) CAP, result in words.
A. ne

Q. // TRPV1 human (f) CAP, result in words lookup, key: CC1CCN(c2nc(C(F)(F)F)ccc2CNC(=O)Nc2nc3ccccc3[nH]2)CC1
A. ne
